Overview of recorded IC50 for various compounds
tested on: human liver cancer HepG2 cells; test: Cell proliferation assay (CCK-8); assay type: cell-based; conditions: HepG2, 72 h

- Compound: "C[C@H]1CCC/C=C/[C@@H]2C[C@H](O)C[C@H]2[C@H](OC(=O)/C=C/c2ccccc2Br)/C=C/C(=O)O1 [Compound 4b, 4-O-(2-bromocinnamic acid)acyl BFA]"
  IC50: "100 to 1000 nM"
- Compound: "C[C@H]1CCC/C=C/[C@@H]2C[C@H](O)C[C@H]2[C@H](OC(=O)/C=C/c2cccc(F)c2)/C=C/C(=O)O1 [Compound 1b, 4-O-(3-fluorocinnamic acid)acyl BFA]"
  IC50: "100 to 1000 nM"
- Compound: "Cc1ccccc1/C=C/C(=O)O[C@@H]1/C=C/C(=O)O[C@@H](C)CCC/C=C/[C@@H]2C[C@H](O)C[C@H]21 [Compound 8b, 4-O-(2-methylcinnamic acid)acyl BFA]"
  IC50: "100 to 1000 nM"
- Compound: "C[C@H]1CCC/C=C/[C@@H]2C[C@H](O)C[C@H]2[C@H](OC(=O)/C=C/c2cccc(Cl)c2)/C=C/C(=O)O1 [Compound 5b, 4-O-(3-chlorocinnamic acid)acyl BFA]"
  IC50: "100 to 1000 nM"
- Compound: "C[C@H]1CCC/C=C/[C@@H]2C[C@H](OC(=O)/C=C/c3ccc(F)cc3)C[C@H]2[C@H](OC(=O)/C=C/c2ccc(F)cc2)/C=C/C(=O)O1 [Compound 3c, 4,7-O-bis(4-fluorocinnamic acid)acyl BFA]"
  IC50: "1000 to 10000 nM"

----------
system: human breast cancer MCF7 cells; assay: Cell proliferation assay (CCK-8); format: cell-based; conditions: MCF7, 72 h
Measured IC50 values are reported for all entries that follow.

- Compound: "C[C@H]1CCC/C=C/[C@@H]2C[C@H](OC(=O)/C=C/c3ccncc3)C[C@H]2[C@H](OC(=O)/C=C/c2ccncc2)/C=C/C(=O)O1 [Compound 14c]"
  IC50: "1000 to 10000 nM"
- Compound: "Cc1ccccc1/C=C/C(=O)O[C@@H]1C[C@@H]2[C@H](/C=C/CCC[C@H](C)OC(=O)/C=C/[C@H]2OC(=O)/C=C/c2ccccc2C)C1"
  IC50: "1000 to 10000 nM"
- Compound: "C[C@H]1CCC/C=C/[C@@H]2C[C@H](OC(=O)/C=C/c3ccccn3)C[C@H]2[C@H](O)/C=C/C(=O)O1 [Compound 15a]"
  IC50: "100 to 1000 nM"

----------
Collected solubility at 24 h values appear next to each entry.
assay: Solubility test (shaking 24 h at 37° C., HPLC); conditions: methanol

- Compound: "C[C@H]1CCC/C=C/[C@@H]2C[C@H](O)C[C@H]2[C@H](OC(=O)/C=C/c2cccc(F)c2)/C=C/C(=O)O1"
  solubility at 24 h, mg/mL: 21.1
- Compound: "C[C@H]1CCC/C=C/[C@@H]2C[C@H](OC(=O)/C=C/c3ccc(N(C)C)cc3)C[C@H]2[C@H](O)/C=C/C(=O)O1 [Compound 10a]"
  solubility at 24 h, mg/mL: 25.3
- Compound: "C[C@H]1CCC/C=C/[C@@H]2C[C@H](OC(=O)/C=C/c3cccc(F)c3)C[C@H]2[C@H](OC(=O)/C=C/c2cccc(F)c2)/C=C/C(=O)O1"
  solubility at 24 h, mg/mL: 12.2
- Compound: "C[C@H]1CCC/C=C/[C@@H]2C[C@H](OC(=O)/C=C/c3ccc(N(C)C)cc3)C[C@H]2[C@H](OC(=O)/C=C/c2ccc(N(C)C)cc2)/C=C/C(=O)O1 [Compound 10c]"
  solubility at 24 h, mg/mL: 13.3
- Compound: "C[C@H]1CCC/C=C/[C@@H]2C[C@H](O)C[C@H]2[C@H](OC(=O)/C=C/c2ccc(N(C)C)cc2)/C=C/C(=O)O1 [Compound 10b]"
  solubility at 24 h, mg/mL: 24.2
- Compound: "C[C@H]1CCC/C=C/[C@@H]2C[C@H](OC(=O)/C=C/c3cccc(F)c3)C[C@H]2[C@H](O)/C=C/C(=O)O1"
  solubility at 24 h, mg/mL: 21.3

Ref: patent US20220064138A1
